Just for reference, patent US20140323501A1 is where these values come from.

Give LYM 1 h for every item shown.
Tested on: SD rat peripheral blood lymphocyte counts
Test: Effect of S1P1 receptor agonists on rat vein (peripheral) blood lymphocyte counts
Assay type: in vivo
Settings: Table 1; 10 mg/Kg intragastric; 1 h after administration

Solved cases below.
CC(C)c1nc(-c2ccc(Oc3ccc(CCC(N)(CO)CO)cc3)cc2)co1 [Syl935]: 3.73 ± 1.23 × 10^9/L
CCCCc1ccc(Oc2ccc(CCC(N)(CO)CO)cc2)cc1 [Syl926]: 3.40 ± 0.20 × 10^9/L
CCCCCCCCc1ccc(CCC(N)(CO)CO)cc1 [FTY720, reference compound]: 4.75 ± 2.76 × 10^9/L

Then this compound:
// LYM 1 h lookup, compound = CCc1nc(-c2ccc(Oc3ccc(CCC(N)(CO)CO)cc3)cc2)co1 [Syl934] , result: 3.60 ± 0.69 × 10^9/L

###

Give compared with 0 h (%) 1 h for every item shown.
System: SD rat peripheral blood lymphocyte counts
Assay: Effect of S1P1 receptor agonists on rat vein (peripheral) blood lymphocyte counts
Assay type: in vivo
Details: Table 1; lymphocyte count change vs 0 h; 10 mg/Kg intragastric; 1 h
Give bare numbers, in %.

CCc1nc(-c2ccc(Oc3ccc(CCC(N)(CO)CO)cc3)cc2)co1: 13.60
CCCCc1ccc(Oc2ccc(CCC(N)(CO)CO)cc2)cc1: 34.19
CC(C)c1nc(-c2ccc(Oc3ccc(CCC(N)(CO)CO)cc3)cc2)co1: 21.68

// compared with 0 h (%) 1 h lookup, compound = CCCCCCCCc1ccc(CCC(N)(CO)CO)cc1 [FTY720, reference compound] , result: −13.10

###

System: SD rat heart rate
Assay: Effect of S1P1 receptor agonists on rat heart rate
Format: in vivo
Details: Table 4; intragastric; 8 h
quantity.measured: heart rate 8 h
Give bare numbers.

Solved cases below.
NC(CO)(CO)CC(O)c1ccc(Oc2ccc(-c3coc(C4CC4)n3)cc2)cc1 (stereo not drawn): 362.50
CC(C)c1nc(-c2ccc(Oc3ccc(C(O)CC(N)(CO)CO)cc3)cc2)co1 (stereo not drawn): 337.00
CCCCCCCCc1ccc(CCC(N)(CO)CO)cc1 [FTY720, reference compound]: 308.08

Please look at the items below and tell me heart rate 8 h for each one, in order.
1. CCCc1nc(-c2ccc(Oc3ccc(C(O)CC(N)(CO)CO)cc3)cc2)co1 (stereo not drawn)
2. CCc1nc(-c2ccc(Sc3ccc(CCC(N)(CO)CO)cc3)cc2)co1
3. NC(CO)(CO)CCc1ccc(Oc2ccc(-c3coc(C4CC4)n3)cc2)cc1

363.08
364.11
351.50

###

Tested on: SD rat heart rate
Assay: Effect of S1P1 receptor agonists on rat heart rate
Type: in vivo
Details: Table 4
Please use 1 for Δ % = the percentage of change of rat heart rate before and after administration under 10% and -1 for everything else, ties included.

NC(CO)(CO)CCc1ccc(Oc2ccc(-c3coc(C4CC4)n3)cc2)cc1: -1
NC(CO)(CO)CC(O)c1ccc(Oc2ccc(-c3coc(C4CC4)n3)cc2)cc1 (stereo not drawn): 1
CCc1nc(-c2ccc(Sc3ccc(CCC(N)(CO)CO)cc3)cc2)co1: 1

Below 10% on Δ % = the percentage of change of rat heart rate before and after administration? Entry CC(C)c1nc(-c2ccc(Oc3ccc(C(O)CC(N)(CO)CO)cc3)cc2)co1 (stereo not drawn)
-1

Below 10% on Δ % = the percentage of change of rat heart rate before and after administration? Entry CCCCCCCCc1ccc(CCC(N)(CO)CO)cc1 [FTY720, reference compound]
-1

Below 10% on Δ % = the percentage of change of rat heart rate before and after administration? Entry CCCc1nc(-c2ccc(Oc3ccc(C(O)CC(N)(CO)CO)cc3)cc2)co1 (stereo not drawn)
-1

###

Tested on: SD rat peripheral blood lymphocyte counts
Assay: Effect of S1P1 receptor agonists on rat vein (peripheral) blood lymphocyte counts
Type: in vivo
Conditions: Table 3; 10 mg/Kg intragastric; 0 h, before administration
Give LYM 0 h for every item shown.

CCCCCCCCc1ccc(CCC(N)(CO)CO)cc1 [FTY720, reference compound]: 4.97 ± 1.06 ×10^9/L
CCCc1nc(-c2ccc(Oc3ccc(C(O)CC(N)(CO)CO)cc3)cc2)co1 (stereo not drawn) [Syl961]: 7.90 ± 2.46 ×10^9/L
CC(C)c1nc(-c2ccc(Oc3ccc(C(O)CC(N)(CO)CO)cc3)cc2)co1 (stereo not drawn) [Syl962]: 8.03 ± 1.15 ×10^9/L
NC(CO)(CO)CCc1ccc(Oc2ccc(-c3coc(C4CC4)n3)cc2)cc1 [Syl955]: 7.40 ± 2.18 ×10^9/L
NC(CO)(CO)CC(O)c1ccc(Oc2ccc(-c3coc(C4CC4)n3)cc2)cc1 (stereo not drawn) [Syl963]: 6.90 ± 0.95 ×10^9/L

// LYM 0 h lookup, compound = CCc1nc(-c2ccc(Sc3ccc(CCC(N)(CO)CO)cc3)cc2)co1 [Syl974] , result: 6.55 ± 0.21 ×10^9/L

###

Give heart rate 0.5 h for every item shown.
System: SD rat heart rate
Test: Effect of S1P1 receptor agonists on rat heart rate
Type: in vivo
Settings: Table 4; intragastric; 0.5 h
One number for each entry.

Please look at the items below and tell me heart rate 0.5 h for each one, in order.
1. CCCCCCCCc1ccc(CCC(N)(CO)CO)cc1 [FTY720, reference compound]
2. CC(C)c1nc(-c2ccc(Oc3ccc(C(O)CC(N)(CO)CO)cc3)cc2)co1 (stereo not drawn)
3. CCc1nc(-c2ccc(Sc3ccc(CCC(N)(CO)CO)cc3)cc2)co1
4. CCCc1nc(-c2ccc(Oc3ccc(C(O)CC(N)(CO)CO)cc3)cc2)co1 (stereo not drawn)
5. NC(CO)(CO)CC(O)c1ccc(Oc2ccc(-c3coc(C4CC4)n3)cc2)cc1 (stereo not drawn)
6. NC(CO)(CO)CCc1ccc(Oc2ccc(-c3coc(C4CC4)n3)cc2)cc1

1: 356.33; 2: 397.13; 3: 382.63; 4: 382.56; 5: 388.38; 6: 373.00

###

System: SD rat heart rate
Assay: Effect of S1P1 receptor agonists on rat heart rate
Assay type: in vivo
Details: Table 4; intragastric; 1 h
Give heart rate 1 h for every item shown.
One number for each entry.

Solved cases below.
CCCCCCCCc1ccc(CCC(N)(CO)CO)cc1 [FTY720, reference compound]: 319.22
CC(C)c1nc(-c2ccc(Oc3ccc(C(O)CC(N)(CO)CO)cc3)cc2)co1 (stereo not drawn): 374.88
NC(CO)(CO)CC(O)c1ccc(Oc2ccc(-c3coc(C4CC4)n3)cc2)cc1 (stereo not drawn): 378.36
CCCc1nc(-c2ccc(Oc3ccc(C(O)CC(N)(CO)CO)cc3)cc2)co1 (stereo not drawn): 364.33

Please look at the items below and tell me heart rate 1 h for each one, in order.
1. CCc1nc(-c2ccc(Sc3ccc(CCC(N)(CO)CO)cc3)cc2)co1
2. NC(CO)(CO)CCc1ccc(Oc2ccc(-c3coc(C4CC4)n3)cc2)cc1

1. 388.00
2. 384.75

###

Give heart rate 24 h for every item shown.
Tested on: SD rat heart rate
Assay: Effect of S1P1 receptor agonists on rat heart rate
Type: in vivo
Conditions: Table 4; intragastric; 24 h
Numbers only.

CCc1nc(-c2ccc(Sc3ccc(CCC(N)(CO)CO)cc3)cc2)co1 [Syl974]: 363.13

Please look at the items below and tell me heart rate 24 h for each one, in order.
1. CC(C)c1nc(-c2ccc(Oc3ccc(C(O)CC(N)(CO)CO)cc3)cc2)co1 (stereo not drawn) [Syl962]
2. NC(CO)(CO)CC(O)c1ccc(Oc2ccc(-c3coc(C4CC4)n3)cc2)cc1 (stereo not drawn) [Syl963]
3. NC(CO)(CO)CCc1ccc(Oc2ccc(-c3coc(C4CC4)n3)cc2)cc1 [Syl955]
4. CCCCCCCCc1ccc(CCC(N)(CO)CO)cc1 [FTY720, reference compound]
5. CCCc1nc(-c2ccc(Oc3ccc(C(O)CC(N)(CO)CO)cc3)cc2)co1 (stereo not drawn) [Syl961]

1: 331.89; 2: 369.05; 3: 353.90; 4: 323.25; 5: 363.27

###

System: SD rat peripheral blood lymphocyte counts
Test: Effect of S1P1 receptor agonists on rat vein (peripheral) blood lymphocyte counts
Type: in vivo
Settings: Table 1; 10 mg/Kg intragastric; 2 h after administration
quantity.measured: LYM 2 h

CCc1nc(-c2ccc(Oc3ccc(CCC(N)(CO)CO)cc3)cc2)co1 [Syl934]: 2.47 ± 0.23 × 10^9/L

Please look at the items below and tell me LYM 2 h for each one, in order.
1. CCCCCCCCc1ccc(CCC(N)(CO)CO)cc1 [FTY720, reference compound]
2. CC(C)c1nc(-c2ccc(Oc3ccc(CCC(N)(CO)CO)cc3)cc2)co1 [Syl935]
3. CCCCc1ccc(Oc2ccc(CCC(N)(CO)CO)cc2)cc1 [Syl926]

1: 2.45 ± 0.07 × 10^9/L; 2: 2.70 ± 1.05 × 10^9/L; 3: 2.57 ± 0.84 × 10^9/L
